Reference for the values: patent EP0272791A2

test system: ALL; settings: active = < 30% cell survival; concentrations of Table 1
observation.type: in vitro activity (in words)

{"smiles.record": "Nc1ccn([C@@H]2O[C@H](CO)[C@@H](O)[C@@H]2O)c(=O)n1", "observation.type": "in vitro activity (in words)", "measured.result": "active"}
{"smiles.record": "C[C@@H]1C[C@H]2[C@@H]3CCC4=CC(=O)C=C[C@]4(C)[C@@]3(F)[C@@H](O)C[C@]2(C)[C@@]1(O)C(=O)CO", "observation.type": "in vitro activity (in words)", "measured.result": "active"}

----------
system: ANLL; experiment: differential staining cytotoxicity assay (DiSC), fresh tumor specimens; format: cell-based, human; conditions: dexamethasone 0.4, cytarabine 3.3, vincristine […] continuous 4-day exposure; mechlorethamine 3.5, doxorubicin 1.67 μg/ml 1-hour exposure
observation.type: % of all specimens tested which were "sensitive" in vitro (< 30% cell survival)

[in] # value lookup — system ANLL, readout % of all specimens tested which were "sensitive" in vitro (< 30% cell survival), item Nc1ccn([C@@H]2O[C@H](CO)[C@@H](O)[C@@H]2O)c(=O)n1 [Cytarabine, cytarabine]
[out] 76% (34)

[in] Try the molecule C[C@@H]1C[C@H]2[C@@H]3CCC4=CC(=O)C=C[C@]4(C)[C@@]3(F)[C@@H](O)C[C@]2(C)[C@@]1(O)C(=O)CO [Dexamethasone, dexamethasone]
[out] 7% (41)

[in] Try the molecule COc1cccc2c1C(=O)c1c(O)c3c(c(O)c1C2=O)C[C@@](O)(C(=O)CO)C[C@@H]3O[C@H]1C[C@H](N)[C@H](O)[C@H](C)O1 [Doxorubicin, doxorubicin]
[out] 48% (27)

[in] Try the molecule CC[C@]1(O)C[C@H]2CN(CCc3c([nH]c4ccccc34)[C@@](C(=O)OC)(c3cc4c(cc3OC)N(C=O)[C@H]3[C@@](O)(C(=O)OC)[C@H](OC(C)=O)[C@]5(CC)C=CCN6CC[C@]43[C@@H]65)C2)C1 [Vincristine, vincristine]
[out] 22% (23)
